The reader will find reported Thermal decomposition (5% weight reduction) temperature values listed item by item below.
testName: Measurement of thermal decomposition temperature (TG-DTA, 5% weight reduction)
Format: physicochemical
testSettings: TG-DTA, heating speed 10° C./min, air flow 200 mL/min
Please respond with the number in °C and leave the unit unwritten.

Reference set (3 entries):
Ask: Return the recorded Thermal decomposition (5% weight reduction) temperature value; entry: NCCOCC(F)(F)OC(F)(F)C(F)(F)OC(F)(F)C(F)(F)OC(F)(F)C(F)(F)C(F)(F)C(F)(F)F.O=S(=O)(NS(=O)(=O)C(F)(F)C(F)(F)C(F)(F)C(F)(F)F)C(F)(F)C(F)(F)C(F)(F)C(F)(F)F
Reply: 291

Ask: Return the recorded Thermal decomposition (5% weight reduction) temperature value; entry: NCCC(F)(F)C(F)(F)C(F)(F)C(F)(F)C(F)(F)C(F)(F)C(F)(F)C(F)(F)F.O=S(=O)(O)C(F)(F)C(F)(F)C(F)(F)C(F)(F)F [compound 2, reference compound]
Reply: 308

Ask: Return the recorded Thermal decomposition (5% weight reduction) temperature value; entry: NCCOCC(F)(F)OC(F)(F)C(F)(F)OC(F)(F)C(F)(F)OC(F)(F)C(F)(F)C(F)(F)C(F)(F)F.O=S(=O)(O)CCCOCC(F)(F)OC(F)(F)C(F)(F)OC(F)(F)C(F)(F)OC(F)(F)C(F)(F)C(F)(F)C(F)(F)F [Ex. 1, PFTEG amine-PFTEG sulfonic acid salt]
Reply: 246

Further cases:
Ask: Return the recorded Thermal decomposition (5% weight reduction) temperature value; entry: NCCC(F)(F)C(F)(F)C(F)(F)C(F)(F)C(F)(F)C(F)(F)C(F)(F)C(F)(F)F.O=C(O)C(F)(F)OC(F)(F)C(F)(F)OC(F)(F)C(F)(F)OC(F)(F)C(F)(F)C(F)(F)C(F)(F)F
Reply: 169

Ask: Return the recorded Thermal decomposition (5% weight reduction) temperature value; entry: NCCOCC(F)(F)OC(F)(F)C(F)(F)OC(F)(F)C(F)(F)OC(F)(F)C(F)(F)C(F)(F)C(F)(F)F.O=S(=O)(O)C(F)(F)C(F)(F)C(F)(F)C(F)(F)F
Reply: 302
